# Lookup of reported apparent KD of MS2 coat protein keyed by entry
# Test system: MS2 coat protein
# assayComment: apparent KD of MS2 coat protein; higher = weaker reporter binding
# particulars: Eterna round: R107; input ligand: theophylline 2 mM

sequenceChain: GGUGGCGUGACGGAUACCAGCCACCACCGCAAGGCCACAUGAGGAUCACCCAUGUUGGGUGGCCCUUGGCAGCUGUCGUGCGGCG [#1 Same State - Theophylline B Attempt #20 (HarryS)]
apparent KD of MS2 coat protein / nM: 431

sequenceChain: UGUAUGUGAUCUGAUACCAGUGACACGAAAGUGAAUCGCUUGAGGAUCACCCAAGUAAAACACCCUUGGCAGCAGAUCGCAUACU [Full moving switch bubble 1]
apparent KD of MS2 coat protein / nM: 25

sequenceChain: CCAUAGGGUAAAUACAUAAUCAUAUCUGAAGGAGCGUGGAUAAACACAGGUAGGUCGCAGAAUCACAUGAGGAUCACCCAUGUCU [Same State Arginine A GF11]
apparent KD of MS2 coat protein / nM: 52.6

sequenceChain: UAUGCACAUGAGGAUCACCCAUGUAUGGAAGGAGCGGUGAAUAAACCAGGUAGGUCGCCAUGGUGAGGAUCAUCUAUGUAAUCGU [Exclusion - Arginine A (Freestyle 6)]
apparent KD of MS2 coat protein / nM: 103

sequenceChain: GGGACAUGAGGAUCACCCAUGUACCGGUCCCGAGGACCGGUACGGCCGCCACUCGAUGACCUCAUAGUCUGCUGGAGCAGCAGAC [Usesedarin]
apparent KD of MS2 coat protein / nM: 84.3

====

# System: MS2 coat protein
# assayComment: apparent KD of MS2 coat protein; higher = weaker reporter binding
# particulars: Eterna round: R107; input ligand: theophylline 2 mM
# Lookup of reported apparent KD of MS2 coat protein keyed by entry
valueType: apparent KD of MS2 coat protein (nM)

sequenceChain: CGCCACAUGAGGAUCACCCAUGUCUUGGCGCGAGGACCGGUACGGCCGCCACUCGCGUUUCAGUGAGCGCAUGCGUCCUUGGUAU [Exclusion Tryp A GF10]
observedResult: 20.3
--
sequenceChain: AGUCGAAACUGAAGGAGCGAGAUGACAACAUUGGGUCUAACAUGAGGAUCACCCAUGUAAUCUCAGGUAGGUCGCAGUAACAAAA [Exclusion Arginine B GF 16]
observedResult: 104
--
sequenceChain: AAUUCAAGGUUCUUGAUGUAUUAUAUAUUUCGAGGACCGGUACGGCCGCCACUCGUUAAUUACAUGAGGAUCACCCAUGUUAGCU [JR_ExcTryptoA_Sub010]
observedResult: 17.2

====

# System: K4 kissing-loop RNA reporter
# assayComment: apparent KD of K4 kissing-loop reporter; higher = weaker reporter binding
# particulars: Eterna round: R107; input ligand: FMN 200 uM
# Lookup of reported apparent KD of K4 kissing-loop reporter keyed by entry

sequenceChain: ACUGAAAGAUCUGAUACCAGACUUUUUGUAUUUAUUAAAACUAGUGAUGUUAGUUUAUCUGUCCCUUGGCAGCAGUUUCUACAGA [JR_Nu_ExcTheophyB_Sub023]
assayedSystem: K4 kissing-loop RNA reporter
unitsLabel: nM
apparent KD of K4 kissing-loop reporter: 128
--
sequenceChain: UAGGAGUGAUGUUCCUAUAGCAGGUAGGAAGGAGCGCCCAUUUGGGCAGGUAGGUCGCCUACCGGCCCUAAGUUAAACCUUAGGC [Rariar]
assayedSystem: K4 kissing-loop RNA reporter
unitsLabel: nM
apparent KD of K4 kissing-loop reporter: 99.6
--
sequenceChain: UAUCUUUACUGAAGGAGCGAGCAUUUUGGAGUGAUGUUCCGAGCGAGUGAUGUUCGCAUAGCUCAGGUAGGUCGCAGUGGGAAAA [Same State Arginie B GF 15]
assayedSystem: K4 kissing-loop RNA reporter
unitsLabel: nM
apparent KD of K4 kissing-loop reporter: 152
--
sequenceChain: UGGUUUGGAAGUGAUGUUUCUAUAAGUGAUACCAGACAAAAGAAAGUCCCUUGGCAGCACAAUGAUGCCAAGGAAACGGCAUGAU [#15 K4 Theophylline A Same State]
assayedSystem: K4 kissing-loop RNA reporter
unitsLabel: nM
apparent KD of K4 kissing-loop reporter: 179
--
sequenceChain: UCGAGUUGACGAAAAGUCAACUCGUGAGAUACCAGUGACGAAAGUCACCCUUGGCAGCUCACUGCCAGUGAUGUUGGUGUAUAGA [#06 K4 Theophylline A Same State]
assayedSystem: K4 kissing-loop RNA reporter
unitsLabel: nM
apparent KD of K4 kissing-loop reporter: 856
--
sequenceChain: GCGUAGAUUAGCAGUGAUGUUGCUACGGAAGGAGCGCGUGAAAACGCAGGUAGGUCGCCGACAAAAUUAAUUUUAAUGUCUGCGC [KL-SSArg-A6]
assayedSystem: K4 kissing-loop RNA reporter
unitsLabel: nM
apparent KD of K4 kissing-loop reporter: 469

====

# Tested on: K4 kissing-loop RNA reporter;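 note: bound reporter read as fluorescence of individual clusters on recovered sequencing chips by microscopy, with normalized cluster intensities fitted with a binding model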
# assayComment: apparent KD of K4 kissing-loop reporter; higher = weaker reporter binding
# particulars: Eterna round: R107; input ligand: arginine 13.2 mM

sequenceChain: GUGCGGCUAGUGAUGUUGGUUGUGUGGGAAGGAGCGCAGAUUCAUGCAGGUAGGUCGCCCACACGUCUGAAAGGAUGAUAAUUCA [#12 K4 Arginine A Same State]
apparent KD of K4 kissing-loop reporter (nM): 306
--
sequenceChain: UUGUCCGGGUGAUGGUCAUCACGUGGCGGGCGAGGACCGGUACGGCCGCCACUCGACUUUGCAGUGAUGUUGCAAACCGGACAAU [Exclusion - Tryptophan A (Freestyle 23)]
apparent KD of K4 kissing-loop reporter (nM): 174
--
sequenceChain: UGUUUUUACUGAAGGAGCGGCAAUUGAUACGUAGAUAUAGUGAUGUUAUAUAAGAUAGAGAGCCAGGUAGGUCGCAGAGUGUAUC [ExArgB.aB]
apparent KD of K4 kissing-loop reporter (nM): 188
--
sequenceChain: GGUAGCAUGGCGGCCGCCACUCGCAUCACAGGCCAUUAACCGCCCUCGUAAAGUGAUGUUUUACAGAGGACCGGGCCAUGCUACC
apparent KD of K4 kissing-loop reporter (nM): 257
--
sequenceChain: AAUGGGUGAUAAGGAUAUCCACCUCACAAACCAAGAGUGAUGUUCGUUGGUCCAUGGACAAUAUGUGGAGAAGGUAUAGUGAUUA [theeternabot_exclusion_KL_FMN_B_48]
apparent KD of K4 kissing-loop reporter (nM): 853
--
sequenceChain: UGUGUUUACCUGACUCAGUGAUGUUGAGAAGGAGCGUGCUAAAGCACAGGUAGGUCGCUCAACCUAAAUUCAGGUGAGCACUAAA
apparent KD of K4 kissing-loop reporter (nM): 258

====

# Tested on: MS2 coat protein
# assayComment: apparent KD of MS2 coat protein; designed switch direction (-1 OFF switch, 1 ON switch): -1; higher = weaker reporter binding
# particulars: Eterna round: R95; input ligand: none
# Lookup of reported apparent KD of MS2 coat protein keyed by entry
valueType: apparent KD of MS2 coat protein (nM)

sequenceChain: AGAAAUGCCCAUGGCCGCAAGCUCUUUGCUUGUCUUACCACAUGAGGAUCACCCAUGUGACAUGGGCUCCUUAUAAU [Riquarge] (puzzle: Sensor v3, turn-off variant 2)
observedResult: 12

sequenceChain: CAGUACUGAGGAUAUACAUGAGGAUCACCCAUGUGUGCCAGCUAGGAAACUAGCAAAAGUAGAAGGCAGUACUG [salish99_ex3_r3_082] (puzzle: Exclusion 3)
observedResult: 11.9

sequenceChain: AGAUGGCGAGGAUAUACAUGAGGAUCACCCAUGUGAGAUAAGAAAGUGAGGAAGAAAAGUAGAAGGCGCUGUCA [Mat - Exclusion 3 - Mod of Salish D12] (puzzle: Exclusion 3)
observedResult: 58.4

====

# Tested on: MS2 coat protein
# assayComment: apparent KD of MS2 coat protein, switch OFF state (with FMN for OFF switches, without FMN for ON switches); designed switch direction (-1 OFF switch, 1 ON switch): 1; higher = weaker reporter binding
# particulars: FMN input: 0 or 200 uM; Eterna round: R93 (includes R88 designs)
Use Met when the recorded apparent KD of MS2 coat protein is no lower than 100 nM; use Not met when it is lower.

sequenceChain: GUGUAUAGCCUCGAGGAUAUCCUGUAAUGCACAUGAGGAUCACCCAUGUAUGAGCGAGUUUUUUGGGAGAAGGCGAGUUAUCGGU [JR_SS002_Sub1709]
groupLabel: Not met
//
sequenceChain: AAGAAACAUGAGGAUCACCCAUGUAAGAUAUACACAGGAUAUGCGAAAAGAAACAAAGAAGCAGAAGGGUGGAAAA [75%, Ex sub1, 10]
groupLabel: Not met
//
sequenceChain: GGAAAUAAAAGAGAGGAUAUCCAAAGGAAAACAUGAGGAUCACCCAUGUAAAAGGAAGGAAAGUGGGAGAAGGCUCAAAAUAAGG [salish99-ss2-008]
groupLabel: Not met
//
sequenceChain: AAAAAACAUGAGGAUCACCCAUGUCUUCGGACGUGAGGAUAUGUACAGACUUCGGUCUGUACAGAAGGCACAAAAA [SS1 - 1033]
groupLabel: Met
//
sequenceChain: AGGAAACAUGAGGAUCACCCAUGUAAAAGGUGGUUAGGAUAUGCGAUAAUAAAAAUAAUAGCAGAAGGGACAAGAA [Same State of Confusion3 mod Fisker]
groupLabel: Met
